tested on: NCI/ADR-RES; test: NCI tumour cell line growth inhibition, 48 h
Calls of active or inactive are those of the source. Cut-off read from the data, not from the text of the source: active = GI50 up to about 1.1 µM and inactive = higher.
Could you please pick one outcome from this set? Y (active), N (inactive)

CCOC(=O)/C1=C(\C)N(Cc2ccccc2)C(=O)c2ccccc2C(=O)c2c(OC(C)=O)ccc(OC(C)=O)c21
N
C/C=C/[C@H]1O[C@@](O)([C@@H](C)[C@H](O)[C@H](C)[C@H]2OC(=O)/C(OC)=C/C(C)=C/[C@@H](C)[C@@H](O)[C@@H](CC)[C@@H](O)[C@H](C)C/C(C)=C/C=C/[C@@H]2OC)C[C@H](OC2CC(O)C(OC(N)=O)C(C)O2)[C@@H]1C (some centres undefined)
Y
CN(CCNC(=O)c1cn(C)c2c1ccc1cc(Cl)ccc12)CCNC(=O)c1cn(C)c2c1ccc1cc(Cl)ccc12
N

Please state the recorded outcome for this compound: O=C1N(Cc2ccccc2)C2CSCC2N1Cc1ccccc1 (centres undefined)
N

Please state the recorded outcome for this compound: c1cc2c3c(c1)c1cc4c(cc1c[n+]3CC2)OCO4 [ANHYDROLYCORINIUM CHLORIDE]
N

Please state the recorded outcome for this compound: COc1ccc(NC(=O)CC(=O)n2nc(-c3ccccc3)c(/N=N/c3ccc(C)cc3)c2-c2ccccc2)cc1
N

---

The following molecules are listed with their measured GI50 values.
test system: KM12; experiment: NCI tumour cell line growth inhibition, 48 h
Calls of active or inactive are those of the source. Cut-off read from the data, not from the text of the source: active = GI50 up to about 1.1 µM and inactive = higher.

In the examples that follow, each entry is paired with its recorded GI50.
CCOc1ccccc1NC(=O)C(=O)C(C(=O)c1ccc2ccccc2c1)C1OC(=O)c2ccccc21 (stereo not given)
20.8 µM (inactive)
Cc1c(/C=N/NC(=S)Nc2ccc(Cl)cc2)c(=O)n(-c2ccccc2)n1C
> 47.6 µM (inactive)

Recorded GI50 for COC(=O)c1cccc(C)c1C1CN=NC12Cc1cc(C)cc(C)c1C2=O (stereo not given) , please?
34.4 µM (inactive)

Recorded GI50 for Cc1cc2c(C(C)C)c(O)c(O)c(C=O)c2c(O)c1-c1c(C)cc2c(C(C)C)c(O)c(O)c(C=O)c2c1O , please?
2.07 µM (inactive)

Recorded GI50 for O=C(NC(=O)c1cn(CCN2CCNCC2)c(=O)[nH]c1=O)OCc1ccccc1 , please?
> 100 µM (inactive)

Recorded GI50 for COc1c(OC(C)C)c(OC(C)C)c2oc(=O)n3c2c1C(c1ccccc1-n1c(C)ccc1C)C=C3 (stereo not given) , please?
22.9 µM (inactive)

Recorded GI50 for CSc1ccc2c(cc1=O)C(NC(=O)c1ccccc1)CCc1cc(O)c(O)c(O)c1-2 (stereo not given) , please?
4.81 µM (inactive)

Recorded GI50 for O=C(Nc1cccs1)c1c(O)[nH]c(=S)[nH]c1=O , please?
> 100 µM (inactive)

Recorded GI50 for O=C(Nc1ccc(Cl)cc1)c1cc(S(=O)(=O)NC2=Nc3ccc(Cl)cc3C(c3ccccc3)N2)c(SSc2cc(Cl)c(C(=O)Nc3ccc(Cl)cc3)cc2S(=O)(=O)NC2=Nc3ccc(Cl)cc3C(c3ccccc3)N2)cc1Cl (stereo not given) , please?
> 100 µM (inactive)

Recorded GI50 for Cc1cc2c(cc1Cl)SC(NNC(=O)c1ccccc1)=NS2(=O)=O , please?
> 10 µM (inactive)

Recorded GI50 for O=C(NC1CCC(=O)N1C(=O)OCc1ccccc1)OCc1ccccc1 (stereo not given) , please?
> 100 µM (inactive)
